All figures here come from paper PMC6100347.

- Assay notes: Pharmacokinetic study after oral administration of AGN root extract powder in healthy Korean subjects
- Assay type: in vivo, human
- Condition context: male; human plasma, single usual oral dose of 4.6 g AGN root extract powder; mean ± SE, n = 10
- Method: Ten healthy male subjects (Korean, 23–25 years, weight of 56.7–86.2 kg, and height of 159.8–188.0 cm) were included for this clinical trial. […] Plasma concentration–time data were analyzed with non-compartmental method using WinNonlin® software (version 7.0, Pharsight®, Certara™ Company, Princeton, NJ, USA) to obtain pharmacokinetic parameters. […] AUC0–t was calculated by linear trapezoidal rule from zero to the last measurable time point. […]
Quantity kind: half-life (h)

Example compounds with recorded half-life:
{"Compound": "C/C=C(/C)C(=O)O[C@H]1Cc2cc3ccc(=O)oc3cc2OC1(C)C [DA, decursinol angelate]", "half-life / h": 4.04}
{"Compound": "CC1(C)Oc2cc3oc(=O)ccc3cc2C[C@@H]1O [DOH, decursinol]", "half-life / h": 2.62}

a = CC(C)=CC(=O)O[C@H]1Cc2cc3ccc(=O)oc3cc2OC1(C)C [D, decursin]
b = CC(C)(O[C@@H]1O[C@H](CO)[C@@H](O)[C@H](O)[C@H]1O)[C@H]1Cc2cc3ccc(=O)oc3cc2O1 [Nodakenin, nodakenin]
Select the item with the higher value of half-life from the options a and b listed. Pick one; state its label.
b
(b: 6.28 h, a: 3.03 h)
